Data provenance: patent US7365082B2

System: tobacco budworm (Heliothis virescens [Fabricius])
Test: surface-treated diet test against tobacco budworm
Assay type: in vivo
Details: 0.25 millimoles of candidate insecticide on the surface of the diet; second instar larvae; five-day exposure; inhibition of insect weight relative to untreated controls
// values below are reported Percent Growth Inhibition
Use % as the unit, but write only the number.

Example cases with answers are listed next.
Cn1nnc(-c2ccc(CN3CCC(C(=NNC(=O)c4ccc(I)cc4)c4ccc(OC(F)(F)F)cc4)CC3)cc2)n1
100
Cn1nnc(-c2ccc(CN3CCC(C(=NNC(=O)c4cccc(F)c4)c4ccc(OC(F)(F)F)cc4)CC3)cc2)n1
100
COc1ccc(C(=O)NN=C(c2ccc(OC(F)(F)F)cc2)C2CCN(Cc3ccc(-c4nnn(C)n4)cc3)CC2)cc1
100
FC(F)(F)c1ccc(C(c2ccc(Cl)cc2)N2CCN(Cc3ccc(Oc4ncccn4)cc3)CC2)cc1 (centres unmarked)
100
Cn1nnc(-c2ccc(CN3CCC(C(=NNC(=O)c4ccc(OC(F)(F)F)cc4)c4ccc(OC(F)(F)F)cc4)CC3)cc2)n1
100
Cn1nnc(-c2ccc(CN3CCC(C(=NNC(=O)c4ccc(Cl)cc4)c4ccc(Cl)cc4)CC3)cc2)n1
14
COc1ccc(CN2CCC(C(=NNc3ccc(OC(F)(F)F)cc3)c3ccc(OC(F)(F)F)cc3)CC2)cc1
96
CCn1nnc(-c2ccc(CN3CCC(C(=NNc4ccc(OC)cc4)c4ccc(OC(F)(F)F)cc4)CC3)cc2)n1
100
CCn1nnc(-c2ccc(CN3CCC(C(=NNCc4ccc(C(F)(F)F)cc4)c4ccc(OC(F)(F)F)cc4)CC3)cc2)n1
100
CCn1nnc(-c2ccc(CN3CCC(C(=Cc4ccc(OC(F)(F)F)cc4)c4ccc(Cl)cc4)CC3)cc2)n1
100

Supply Percent Growth Inhibition value. Item: `CCn1nnc(-c2ccc(CN3CCC(C(=NNc4ccc(OC(F)(F)F)cc4)c4ccc(OC(F)(F)F)cc4)CC3)cc2)n1`
100

Supply Percent Growth Inhibition value. Item: `CCCOc1ccc(CN2CCC(C(=NNc3ccc(OC(F)(F)F)cc3)c3ccc(OC(F)(F)F)cc3)CC2)cc1`
100

Supply Percent Growth Inhibition value. Item: `CCn1nnc(-c2ccc(CN3CCC(C(=NNC(=O)c4ccc(C(F)(F)F)cc4)c4ccc(OC(F)(F)F)cc4)CC3)cc2)n1`
92

Supply Percent Growth Inhibition value. Item: `O=C(NN=C(c1ccc(OC(F)(F)F)cc1)C1CCN(Cc2ccc(Oc3ccccn3)cc2)CC1)c1ccc(Cl)cc1`
100

###

Tested on: tobacco budworm (Heliothis virescens [Fabricius])
Test: surface-treated diet test against tobacco budworm
Type: in vivo
Details: 0.25 millimoles of candidate insecticide on the surface of the diet; second instar larvae; five-day exposure; inhibition of insect weight relative to untreated controls
parameterMeasured: Percent Growth Inhibition (%)
Use % as the unit, but write only the number.

CCn1nnc(-c2ccc(CN3CCC(C(=NNc4ccc(C(F)(F)F)cc4)c4ccc(C(F)(F)F)cc4)CC3)cc2)n1
96
O=C(c1ccc(C(F)(F)F)cc1)C1CCNCC1
100
CCn1nnc(-c2ccc(CN3CCC(C(=NNS(=O)(=O)c4ccc(C(F)(F)F)cc4)c4ccc(OC(F)(F)F)cc4)CC3)cc2)n1
95

Now consider a different molecule.
Supply Percent Growth Inhibition value. Item: `CCn1nnc(-c2ccc(CN3CCC(C(=NNCc4ccc(OC(F)(F)F)cc4)c4ccc(OC(F)(F)F)cc4)CC3)cc2)n1`
96
